- studySystem: T1, human CD71 extracellular domain (human, UniProt P02786 89-760)
- T1 construct: also called hCD71; human CD71-ECD
- T1 sequence (P02786 89-760): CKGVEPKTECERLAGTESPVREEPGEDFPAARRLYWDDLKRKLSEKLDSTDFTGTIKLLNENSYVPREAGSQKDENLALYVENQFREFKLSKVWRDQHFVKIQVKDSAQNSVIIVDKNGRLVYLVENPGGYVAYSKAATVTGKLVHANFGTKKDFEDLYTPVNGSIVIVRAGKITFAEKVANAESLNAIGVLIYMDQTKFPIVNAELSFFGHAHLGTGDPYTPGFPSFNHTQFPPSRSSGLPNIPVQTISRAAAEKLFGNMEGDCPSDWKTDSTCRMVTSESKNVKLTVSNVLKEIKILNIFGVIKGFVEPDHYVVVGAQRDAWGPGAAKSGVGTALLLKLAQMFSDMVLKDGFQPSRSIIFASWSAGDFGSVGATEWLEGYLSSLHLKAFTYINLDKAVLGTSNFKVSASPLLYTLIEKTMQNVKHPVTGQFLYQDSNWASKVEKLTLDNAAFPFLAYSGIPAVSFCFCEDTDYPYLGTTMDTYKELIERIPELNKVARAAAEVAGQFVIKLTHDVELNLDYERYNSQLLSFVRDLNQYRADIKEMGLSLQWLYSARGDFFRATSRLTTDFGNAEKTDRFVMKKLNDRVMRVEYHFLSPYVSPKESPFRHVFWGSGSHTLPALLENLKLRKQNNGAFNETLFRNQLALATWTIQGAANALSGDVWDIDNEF
- protocolSummary: primary ELISA screen, RLU on human CD71-ECD over RLU on HSA
measuredQuantity: hCD71:HSA (ratio)

INSERT INTO results (binder, measureunit, reading) VALUES
  ('CD71-binding FN3 domain of SEQ ID NO: 334 (designed binder, not shown: C-terminal poly-histidine tag added to each FN3 domain) MSLPAPKNLVVSRVTEDSARLSWTAPDAAFDSFEIAYQELSLWGEAIVLTVPGSERSYDLTGLKPGTEYWVQIGGVKGGIWSSPLVASFTT', 'ratio', 188),
  ('CD71-binding FN3 domain of SEQ ID NO: 337 (designed binder, not shown: C-terminal poly-histidine tag added to each FN3 domain) MSLPAPKNLVVSRVTEDSARLSWTAPDAAFDSFFIGYLEPQPPGEAIHLYVPGSERSYDLTGLKPGTEYNVTIQGVKGGFPSIPLIASFTT', 'ratio', 307),
  ('CD71-binding FN3 domain of SEQ ID NO: 344 (designed binder, not shown: C-terminal poly-histidine tag added to each FN3 domain) MSLPAPKNLFVSRVTEDSARLSWTAPDAAFDSFEIGYWENAYKGEAIVLTVPGSERSYDLTGLKPGTEYWVQIGGVKGGNWSAPLSAIFTT', 'ratio', 36);
